# test.system: Tyrosyl-tRNA synthetase, putative (Trypanosoma cruzi (strain CL Brener))
# test.details: Trypanosoma cruzi tyrosyl tRNA synthetase (TcYRS) _High Tyrosine SOP
# Type: functional
# Set-up: scale not given: in the data most compounds retested in dose-response had high values
# test.parameters: 30 µM
endpoint: Percent Effect (%)
I only need the number, in %, no unit after it.

compound: O=C(NCC1CC1)C1=NOC2(CCN(Cc3ccc4c(c3)OCO4)C2)C1 (stereo unspecified)
test.system: Tyrosyl-tRNA synthetase, putative (Trypanosoma cruzi (strain CL Brener))
Percent Effect (%): 0
--
compound: Cc1nc(C)n(CC2CCCN2CC(=O)Nc2cc(C(C)C)no2)n1 (stereo unspecified)
test.system: Tyrosyl-tRNA synthetase, putative (Trypanosoma cruzi (strain CL Brener))
Percent Effect (%): 4.43
--
compound: CCN(Cc1ccco1)C(=O)Nc1cc(C(F)(F)F)c[nH]c1=O
test.system: Tyrosyl-tRNA synthetase, putative (Trypanosoma cruzi (strain CL Brener))
Percent Effect (%): 4.43
--
compound: CC(C)NC(=O)N1CCc2nc(C(=O)NCc3ccccc3)sc2CC1
test.system: Tyrosyl-tRNA synthetase, putative (Trypanosoma cruzi (strain CL Brener))
Percent Effect (%): 8.65
--
compound: CCc1nc(C2CCCN(C(=O)c3cnn(CC)c3)C2)no1 (stereo unspecified)
test.system: Tyrosyl-tRNA synthetase, putative (Trypanosoma cruzi (strain CL Brener))
Percent Effect (%): 1.06
--
compound: Cc1cnn(CC2CCCN2C(=O)c2cnc3n[nH]c(C)c3c2)c1 (stereo unspecified)
test.system: Tyrosyl-tRNA synthetase, putative (Trypanosoma cruzi (strain CL Brener))
Percent Effect (%): 3.12
--
compound: Cc1nc(CN2C[C@@H]3CN(C(=O)C4CC4)C[C@@H]3C2=O)cs1
test.system: Tyrosyl-tRNA synthetase, putative (Trypanosoma cruzi (strain CL Brener))
Percent Effect (%): 1.08
--
compound: COc1ccccc1C(=O)NC(C)CC(=O)O (stereo unspecified)
test.system: Tyrosyl-tRNA synthetase, putative (Trypanosoma cruzi (strain CL Brener))
Percent Effect (%): 5.21
--
compound: COc1cc(C(=O)N2CCC(c3n[nH]c(C4CC4)n3)CC2)ccc1C
test.system: Tyrosyl-tRNA synthetase, putative (Trypanosoma cruzi (strain CL Brener))
Percent Effect (%): 1.04
--
compound: c1ccc(CN2CC[C@@H]3O[C@@H](COCC4CCOCC4)CC[C@@H]32)nc1
test.system: Tyrosyl-tRNA synthetase, putative (Trypanosoma cruzi (strain CL Brener))
Percent Effect (%): 2.13

Next, consider the following compound.
In plain terms, `CCCNC(=O)c1c(-n2cnnn2)sc2c1CCC2` has a documented Percent Effect of 5.32

Data origin: ChEMBL document CHEMBL3988442
